- Test system: rice
- Assay summary: Treatment of soil under submerged condition, post-emergence (Test 5), injury
- Format: in vivo
- Condition summary: 30 g ai/a granule, 30 days later
Measured parameter: Injury Rice

Some compounds with recorded Injury Rice:
Smiles code	Observed value
COc1cc(OC)nc(Oc2ccccc2C=NOCc2cccc(C)c2)n1	0 (91-100 (No damages))
COc1cccc(C=CCON=Cc2ccccc2Oc2nc(OC)cc(OC)n2)c1	1 (71-90 (Slight damages))

**Q:** Item `CON=Cc1ccccc1Oc1nc(OC)cc(OC)n1` with rice - Injury Rice?
**A:** 0 (91-100 (No damages))

**Q:** Another: `COc1cc(OC)nc(Oc2ccccc2C=NOCC=Cc2ccc(Cl)cc2Cl)n1`
**A:** 0 (91-100 (No damages))

**Q:** Another: `COc1cc(OC)nc(Oc2ccccc2C=NOCC=Cc2ccc(Cl)cc2)n1`
**A:** 0 (91-100 (No damages))

**Q:** Another: `COc1cc(OC)nc(Oc2ccccc2C=NOCCc2ccccc2)n1`
**A:** 0 (91-100 (No damages))

**Q:** Another: `COc1cc(OC)nc(Oc2ccccc2C=NOCc2cccc3ccccc23)n1`
**A:** 0 (91-100 (No damages))
